B1: ZNF649 (parent)
chain: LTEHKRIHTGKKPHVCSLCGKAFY

- Variants of: B1
- protocol-notes: protein stability index of a GFP-peptide fusion (GPS, HEK-293T) (PSI 1-6); higher = more stable;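 note: lentivirally expressed fusions sorted by FACS into six bins by GFP to DsRed ratio, PSI derived from sequencing read proportions per bin multiplied by bin number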
- experimental-setup: c terminus: a fixed tail appended
metric-name: protein stability index
// response body must contain only the number

Sample answers from the record:
V15T | 2.46
G20D | 2.79
Y24I | 1.81

Look at this variant and give its reported protein stability index. H4N
2.84

And what about the variant T9I ?
1.87

And what about the variant L1C ?
3.22

And what about the variant P13V ?
3.06

And what about the variant G20R ?
2.05
